Source listed as patent US8299126B2.

# assay.procedure: Follow-up blood chemistry and hematology of the SAHA-treated dog
# Assay type: in vivo, canine
# applied.conditions: approximately one month post-splenectomy; range 5-8
assay.metric: RBC

Lab note: measured RBC of O=C(CCCCCCC(=O)Nc1ccccc1)NO [SAHA, suberoylanilide hydroxamic acid] was 4.96 10^6/µL

###

# assay.procedure: Follow-up blood chemistry and hematology of the SAHA-treated dog
# Format: in vivo, canine
# applied.conditions: approximately one month post-splenectomy; range 14-21
assay.metric: hemoglobin (g/dL)
Response body: numeric value in g/dL, unit text excluded.

Lab note: measured hemoglobin of O=C(CCCCCCC(=O)Nc1ccccc1)NO [SAHA, suberoylanilide hydroxamic acid] was 13.2

###

# assay.procedure: Follow-up blood chemistry and hematology of the SAHA-treated dog
# Format: in vivo, canine
# applied.conditions: a little over 7 months post-splenectomy; range 37-55
assay.metric: Hematocrit (%)
Response body: numeric value in %, unit text excluded.

Lab note: measured Hematocrit of O=C(CCCCCCC(=O)Nc1ccccc1)NO [SAHA, suberoylanilide hydroxamic acid] was 35.3

###

# assay.procedure: Follow-up blood chemistry and hematology of the SAHA-treated dog
# Type: in vivo, canine
# applied.conditions: a little over 7 months post-splenectomy; reference range 10-150
assay.metric: alkaline phosphatase (U/L)
Response body: numeric value in U/L, unit text excluded.

Lab note: measured alkaline phosphatase of O=C(CCCCCCC(=O)Nc1ccccc1)NO [SAHA, suberoylanilide hydroxamic acid] was 3
